Origin of the recorded values: patent US20260258115A1

target: RSV postfusion F (postF), F ΔFP (Respiratory syncytial virus, UniProt P03420 26-513); assay: BLI, IgG on anti-human IgG sensor, 100 nM antigen
# Lookup of reported pKd keyed by entry
Entry type: numeric. Quantity: pKd, the -log10 of concentration in molar units.

Recorded pKd, per entry:
>>> measured_result("ADI-41607 (antibody, V domains shown) VH: EVQLVESGPGLVKPSQTLSLTCTVSGGSINIGGYYWSWIRQHPEKGLEWIGYIYYSGTTYYNPSLESRVTISIDTSKNQFSLNLSSVTAADTAVYYCASVDQIGATRFDYWGQGTLVTVSS VL: QPVLTQPRSVSGSPGQSVTLSCTGTSSDVGTYNYVSWYQHHPGKAPKLIIYDVNKRPSGVPDRFSGSKSGNTASLTISGLQAEDEADYYCCSYAGSYTLNYVFGTGTKLTVL")
9.15
>>> measured_result("ADI-41610 (antibody, V domains shown, also called Ab 884; Antibody Number 884) VH: EVQLLESGGGVVQPGRSLRLSCAASELSFRNYGMHWVRQAPGKGLEWVAVISYDGNDKYYADSVKGRFTISRDNSKKTLYLQMDSLRAEDTAVYYCAKEGAYCGGDCFSSWGQGTLVTVSS VL: GIQLTQSPSSLSASVGDRVTITCRASQSSSSYLNWYQQKPGKAPKLLIYAASSLQSGVPSRFSGSGSGTDFTLTISSLQPEDFATYYCQQSYSFGGGTKVEIK")
9.01

Now let's try a different one.
In: pKd lookup needed for ADI-41605 (antibody, V domains shown, also called Ab 879; Antibody Number 879) VH: QVQLVESGPGLVKPSQTLSLTCSVSGGSISSDDHYWSWIRQHPGKGLEWIGYIYYSGYTNYNPSLKSRVTISVDTSKNQFSLRLSSVTAADTAVYYCARETDITIFGVVPVGYFDYWGQGTLVTVSS VL: DIQVTQSPDSLAVSLGERATINCKSSQSILSSTNNKNFLAWYQQKPGQPPKLLLHWASTREFGVPDRFSGSGSGTEFTLTISSLQAEDVAVYYCQQYYTTPYTFGQGTKVEIK , thanks.
Out: 9.26
